# Test system: avoidance behavior
# Method: Discrete Avoidance - Rats (avoidance block / escape block)
# Assay type: in vivo, rat
# Measurement Parameters: Rattus norvegicus; 40 mg/kg po, at the indicated duration; read-out: Avoidance block at Duration of Sig. Activity (AB)
inhibition in vivo at 40 mg/kg values for the compounds below.
Report the value in % with no unit label.

CC(C)NCCc1ccc(OCCN2CCN(CCCN3c4ccccc4Sc4ccc(Cl)cc43)CC2)cc1.O=C(O)/C=C\C(=O)O.O=C(O)/C=C\C(=O)O.O=C(O)/C=C\C(=O)O [trimaleate] : 80
CC(C)NCCCCCOc1ccc(OCCN2CCN(CCCN3c4ccccc4Sc4ccc(Cl)cc43)CC2)cc1 : 23
CC(C)NCCOc1ccc(OCCN2CCN(CCCN3c4ccccc4Sc4ccc(Cl)cc43)CC2)cc1.Cl.Cl.Cl [trihydrochloride] : 37
CNCCCOc1ccc(OCCN2CCN(CCCN3c4ccccc4Sc4ccc(Cl)cc43)CC2)cc1.Cl.Cl.Cl [trihydrochloride] : 25
CSc1ccc2c(c1)N(CCCN1CCN(CCOc3ccc(OCCCCCNC(C)C)cc3)CC1)c1ccccc1S2.O=C(O)/C=C\C(=O)O.O=C(O)/C=C\C(=O)O.O=C(O)/C=C\C(=O)O [trimaleate] : 35

Now turn to the next compound.
Record CN(C)CCCOc1ccc(OCCN2CCN(CCCN3c4ccccc4Sc4ccc(Cl)cc43)CC2)cc1.Cl.Cl.Cl [trihydrochloride] . Reported inhibition in vivo at 40 mg/kg: 25

---

# Subject Of Test: 3H--Spiroperidol Binding-Caudate (Rattus norvegicus, UniProt P61169)
# Sequence (P61169 whole entry): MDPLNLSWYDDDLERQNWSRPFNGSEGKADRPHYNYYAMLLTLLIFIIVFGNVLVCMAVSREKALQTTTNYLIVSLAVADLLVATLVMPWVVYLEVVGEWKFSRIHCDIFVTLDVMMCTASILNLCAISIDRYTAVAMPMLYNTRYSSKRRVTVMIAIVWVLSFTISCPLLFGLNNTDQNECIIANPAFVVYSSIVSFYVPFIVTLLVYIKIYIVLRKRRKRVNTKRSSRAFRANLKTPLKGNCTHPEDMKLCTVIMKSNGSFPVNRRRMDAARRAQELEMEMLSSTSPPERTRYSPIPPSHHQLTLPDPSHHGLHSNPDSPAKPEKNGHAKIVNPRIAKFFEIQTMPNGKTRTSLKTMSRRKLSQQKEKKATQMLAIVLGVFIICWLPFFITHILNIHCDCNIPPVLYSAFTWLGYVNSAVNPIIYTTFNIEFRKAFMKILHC
Recorded Metric: pIC50
pIC50 (log units): -log10 of the concentration in mol/L.

CC(C)NC[C@H](O)COc1ccc(OCCN2CCN(CCCN3c4ccccc4Sc4ccc(Cl)cc43)CC2)cc1.Cl.Cl.Cl [Compound A, trihydrochloride] yielded pIC50 of 8.74

---

# Test system: avoidance behavior
# Method: Discrete Avoidance - Rats (avoidance block / escape block)
# Assay type: in vivo, rat
# Measurement Parameters: Rattus norvegicus; 40 mg/kg po, at time of peak effect; read-out: Avoidance block at Time of Peak Effect (AB)
Counter-ions that a name gives are not always drawn.
Recorded Metric: inhibition in vivo at 40 mg/kg (%)
Give a bare numeral; the unit % is implied.

The molecule listed as CC(C)NCCCc1ccc(OCCN2CCN(CCCN3c4ccccc4Sc4ccc(Cl)cc43)CC2)cc1.Cl.Cl.Cl [trihydrochloride] shows inhibition in vivo at 40 mg/kg equal to 100

The molecule listed as CC(C)NCCOc1ccc(OCCN2CCN(CCCN3c4ccccc4Sc4ccc(Cl)cc43)CC2)cc1.Cl.Cl.Cl [trihydrochloride] shows inhibition in vivo at 40 mg/kg equal to 100

inhibition in vivo at 40 mg/kg in this record for CC(C)NCCc1ccc(OCCN2CCN(CCCN3c4ccccc4Sc4ccc(Cl)cc43)CC2)cc1.O=C(O)/C=C\C(=O)O.O=C(O)/C=C\C(=O)O.O=C(O)/C=C\C(=O)O [trimaleate] : 100

Reported inhibition in vivo at 40 mg/kg ( CC(C)NCCCOc1ccc(OCCN2CCN(CCCN3c4ccccc4Sc4ccc(Cl)cc43)CC2)cc1 [trihydrochloride] ) = 97

---

# Test system: avoidance behavior
# Method: Discrete Avoidance - Rats (avoidance block / escape block)
# Assay type: in vivo, rat
# Measurement Parameters: Rattus norvegicus; 40 mg/kg po, at the indicated duration; read-out: Avoidance block at Duration of Sig. Activity (AB)
# Source text: For example, by one procedure, trained rats are placed in experimental chambers equipped with a response lever, a steel grid floor for delivery of electric shock and a loudspeaker for presentation of auditory stimuli. […] The rats can terminate a trial at any point by depression of the response lever. […] This number is expressed as a percentage of the total trials within the segment. […] The lowest dose which produced a 20% block of escape responding (EBD 20) is read from a graphic dose-effect plot. […]
Recorded Metric: inhibition in vivo at 40 mg/kg (%)
Your answer is read as %, so omit the unit and give the number.

Answered examples (3):
CC(C)NC[C@@H](O)COc1ccc(OCCN2CCN(CCCN3c4ccccc4Sc4ccc(Cl)cc43)CC2)cc1.Cl.Cl.Cl [trihydrochloride] : 27
Cl.Cl.Cl.NCCCOc1ccc(OCCN2CCN(CCCN3c4ccccc4Sc4ccc(Cl)cc43)CC2)cc1 [trihydrochloride] : 27
CC(C)NCCCCc1ccc(OCCN2CCN(CCCN3c4ccccc4Sc4ccc(Cl)cc43)CC2)cc1 : 55

Now look at this entry.
Lab book: inhibition in vivo at 40 mg/kg of CC(C)NC[C@H](O)COc1ccc(OCCN2CCN(CCCN3c4ccccc4Sc4ccc(Cl)cc43)CC2)cc1.Cl.Cl.Cl [Compound A, trihydrochloride] noted as 30

---

# Method: Acute toxicity (LD50) in mice after a single dose
# Measurement Parameters: mouse, in vivo, po, 7 days
Each entry below carries its reported LD50 at 168 h.
API: value field is a number in mg/kg; no unit string.

CC(C)NC[C@H](O)COc1ccc(OCCN2CCN(CCCN3c4ccccc4Sc4ccc(Cl)cc43)CC2)cc1.Cl.Cl.Cl : 45

Could you now look at the following compound, please?
LD50 at 168 h reported for this compound `CC(C)Nc1ccc(OCCN2CCN(CCCN3c4ccccc4Sc4ccc(Cl)cc43)CC2)cc1.O=C(O)/C=C\C(=O)O` : 248

---

# Subject Of Test: UniProt:P18901
# Sequence (P18901 whole entry): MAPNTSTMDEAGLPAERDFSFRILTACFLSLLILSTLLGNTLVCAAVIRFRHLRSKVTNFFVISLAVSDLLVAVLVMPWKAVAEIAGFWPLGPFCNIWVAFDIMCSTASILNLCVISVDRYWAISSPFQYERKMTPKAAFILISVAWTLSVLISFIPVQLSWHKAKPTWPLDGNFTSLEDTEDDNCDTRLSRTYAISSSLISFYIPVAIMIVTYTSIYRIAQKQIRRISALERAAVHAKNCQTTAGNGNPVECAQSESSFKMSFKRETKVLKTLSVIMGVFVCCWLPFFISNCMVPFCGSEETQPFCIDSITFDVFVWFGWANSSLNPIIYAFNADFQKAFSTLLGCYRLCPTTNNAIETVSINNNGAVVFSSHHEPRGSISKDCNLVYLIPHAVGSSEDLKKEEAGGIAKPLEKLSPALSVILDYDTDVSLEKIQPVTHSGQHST
Recorded Metric: pIC50
Note on pIC50: it is the negative log10 of concentration, concentration in mol/L.

Reported UniProt:P18901 pIC50 for item CC(C)NC[C@H](O)COc1ccc(OCCN2CCN(CCCN3c4ccccc4Sc4ccc(Cl)cc43)CC2)cc1.Cl.Cl.Cl [Compound A, trihydrochloride] was 6.30

---

# Method: Acute toxicity (LD50) in mice after a single dose
# Measurement Parameters: mouse, in vivo, ip, 7 days
Recorded Metric: LD50 at 168 h (mg/kg)
Please give a number only; it is taken to be in mg/kg.

Kindly note the recorded LD50 at 168 h for `CC(C)Nc1ccc(OCCN2CCN(CCCN3c4ccccc4Sc4ccc(Cl)cc43)CC2)cc1.O=C(O)/C=C\C(=O)O` , which is 230

Origin of values: patent US4471116A
